Provenance of the data: ChEMBL document CHEMBL5724801

- Tested on: U2OS
- METHOD_DESCRIPTION: Multiplex assay against U2OS
- Type: toxicity, cell-based
- TEST_CONTEXT: human, 24 h, 1 µM, compound concentration 1 uM
Reported Population Hoechst High Intensity Objects (%) values are given for each entry in this list.
Quick note: unit goes after the number.

Name the recorded Population Hoechst High Intensity Objects (%) for "O=C(Nc1ccccc1Cl)c1cnc2ccc(C3CCNCC3)cn12.O=C(O)C(=O)O" .
0%

Name the recorded Population Hoechst High Intensity Objects (%) for "COc1ccc2nc3ccc(OC)cc3c(SCCCN)c2c1.Cl" .
0%

---

- Test system: Fibroblast
- METHOD_DESCRIPTION: Multiplex assay against human fibroblast
- Type: toxicity, cell-based
- TEST_CONTEXT: 24 h, 10 µM, compound concentration 10 uM
Reported Population Normal (%) values are given for each entry in this list.
Give the quantity in %, number only.

Name the recorded Population Normal (%) for "CSCC[C@H](NC=O)C(=O)N[C@@H](CC(C)C)C(=O)N[C@@H](Cc1ccccc1)C(=O)O" .
67

Continuing:
Name the recorded Population Normal (%) for CC[C@H](Nc1ncnc2[nH]cnc12)c1nc2cccc(F)c2c(=O)n1-c1ccccc1 [IDELALISIB] .
100

Name the recorded Population Normal (%) for "Cc1noc(-c2ccc(-c3ccc(CC(=O)O)cc3)cc2)c1NC(=O)O[C@H](C)c1ccccc1Cl" .
98

---

- Test system: Fibroblast
- METHOD_DESCRIPTION: Multiplex assay against human fibroblast
- Format: toxicity, cell-based
- TEST_CONTEXT: 12 h, 1 µM, compound concentration 1 uM
Reported Population Hoechst High Intensity Objects (%) values are given for each entry in this list.

Name the recorded Population Hoechst High Intensity Objects (%) for "O=c1cccc2n1C[C@@H]1CNC[C@H]2C1" .
0%

---

- Test system: HEK-293T
- METHOD_DESCRIPTION: Multiplex assay against HEK293T
- Type: toxicity, cell-based
- TEST_CONTEXT: human, 12 h, 10 µM, compound concentration 10 uM
Reported Population Membrane Permeable-Phenotype (%) values are given for each entry in this list.
Give the quantity in %, number only.

The examples below pair each entry with its known result.
Name the recorded Population Membrane Permeable-Phenotype (%) for O=C(NCCNCC(O)COc1ccc(O)cc1)N1CCOCC1.O=C(NCCNCC(O)COc1ccc(O)cc1)N1CCOCC1.O=C(O)/C=C/C(=O)O (stereo not drawn) [XAMOTEROL FUMARATE] .
0

Name the recorded Population Membrane Permeable-Phenotype (%) for C=C(C)[C@H]1CN[C@H](C(=O)O)[C@H]1CC(=O)O [KAINIC ACID] .
0

Name the recorded Population Membrane Permeable-Phenotype (%) for COCCCN1CCC(NC(=O)c2cc(Cl)c(N)c3c2OCC3)CC1 [PRUCALOPRIDE] .
0

Name the recorded Population Membrane Permeable-Phenotype (%) for "CCCCC(=O)N(Cc1ccc(-c2ccccc2-c2nnn[nH]2)cc1)[C@H](C(=O)O)C(C)C" .
0

Name the recorded Population Membrane Permeable-Phenotype (%) for COC[C@@H](c1ccc(C(F)(F)F)cc1)N1CCN(C2(C)CCN(C(=O)c3c(C)ncnc3C)CC2)C[C@@H]1C.O=C(O)/C=C\C(=O)O [VICRIVIROC MALEATE] .
0

Name the recorded Population Membrane Permeable-Phenotype (%) for "CCN1CCN(Cc2ccc(Nc3ncc(F)c(-c4cc(F)c5nc(C)n(C(C)C)c5c4)n3)nc2)CC1.CS(=O)(=O)O" .
0

Continuing:
Name the recorded Population Membrane Permeable-Phenotype (%) for Cl.NCCc1ccc(O)c(O)c1 [DOPAMINE HYDROCHLORIDE] .
0

Name the recorded Population Membrane Permeable-Phenotype (%) for "Cc1noc(-c2ccc(-c3ccc(CC(=O)O)cc3)cc2)c1NC(=O)O[C@H](C)c1ccccc1Cl" .
0
